# System: CCRF-CEM
# EXPERIMENT DESCRIPTION: NCI tumour cell line growth inhibition, 48 h
Activity calls are given as the source filed them. Rule as the data show it: active = GI50 up to about 1.1 µM and inactive = higher.
Parameter GI50: see the listing below.
METRIC: GI50

1. COC(=O)C1=Cc2c(OC)cc(OC)c(OC)c2[C@H](c2cc(OC)c(OC)cc2OC)C1C(=O)OC (stereo partly specified) | 64.7 µM (inactive)
2. CN1C(=O)[C@@H]2[C@@H]3c4ccccc4N(S(=O)(=O)C(F)(F)F)[C@@H]3c3[nH]c4ccccc4c3[C@@H]2C1=O | 25.2 µM (inactive)
3. CCOC(CN(C)C(=O)Nc1ccc(Cl)c(Cl)c1)OCC | > 10 µM (inactive)
4. CCOP(=O)(OCC)C(Nc1ccc(C(=O)O)cc1)c1ccc(C(Nc2ccc(C(=O)O)cc2)P(=O)(OCC)OCC)cc1 (stereo unspecified) | > 100 µM (inactive)
5. COc1ccc(/C=C/c2cc(O)cc(OC3OC(CO)C(O)C(O)C3O)c2)cc1O (stereo unspecified) | 82.4 µM (inactive)
6. O=C(O)Cc1ccc(Nc2nc3ccccc3nc2C(=O)O)cc1 | > 100 µM (inactive)
7. CSc1ccc2c(cc1=O)[C@@H](NC(=O)c1cccc([N+](=O)[O-])c1)CCc1cc(O)c(O)c(O)c1-2 | 34 µM (inactive)
8. CC(C)=CC(=O)N1CCN(C(=O)C=C(C)C)CC1 | > 100 µM (inactive)
9. O=C(CCc1ccccc1)CC1OC(=O)C(Cl)=C1Cl (stereo unspecified) | 29.6 µM (inactive)
10. COC(=O)[C@H](Cc1ccccc1)NP(=O)(O)OCC1C=CC(n2cc(C)c(=O)[nH]c2=O)O1 (stereo partly specified) | > 100 µM (inactive)
11. COc1cc(C(=C2SCCS2)c2nccc3cc(OC)c(OC)cc23)c([N+](=O)[O-])cc1OC | 34.1 µM (inactive)
12. C=CC1(C)CCC2=C(CCC3C(C)(C(=O)OC)CCCC23C)C1=O (stereo unspecified) | 21.4 µM (inactive)
13. O=[N+]([O-])c1ccc(C(Cl)C(Cl)c2ccc(C(Cl)C(Cl)c3ccc([N+](=O)[O-])cc3[N+](=O)[O-])cc2)c([N+](=O)[O-])c1 (stereo unspecified) | 0.232 µM (active)
14. N#CC[C@@H](O)COc1ccccc1 | > 100 µM (inactive)
15. O=C(c1ccccc1)c1cccc(C(=O)c2ccccc2)c1 | 63.8 µM (inactive)
16. O=C(CCCN1CCC(O)(c2ccc(Cl)cc2)CC1)c1ccc(F)cc1 | 41.4 µM (inactive)
